experiment: P. aeruginosa biofilm formation inhibitors, primary screen, PAO1 strain, BacTiter-Glo luminescence, LB-PBS (AID 1144); settings: 12 h, higher = more signal
Respond with Criterion met for z-score values of 0.1 and above, Criterion not met for values below.

Input: Determine whether this molecule has z-score no lower than 0.1: `CCOC(=O)C[C@H]1[C@H](OC(=O)c2ccc(-c3ccccc3)cc2)[C@@H](NC(=O)c2ccc3ccccc3n2)c2cc(OCCCO)ccc2N1C(=O)c1ccccc1`
Output: Criterion met

Input: Now consider `O=C1c2ccccc2[C@@]2(Cc3ccccc3N(C3CC3)C2=O)[C@H](c2ccc(CO)cc2)N1C1CCCCC1` and answer again.
Output: Criterion met

Input: Now consider `COCCOC(=O)N1C(=O)[C@@]2(c3cc(C#CC4=CCCCC4)ccc31)[C@H](C(=O)N1CCN(c3ncccn3)CC1)[C@H]1C(=O)O[C@H](c3ccccc3)[C@H](c3ccccc3)N1[C@@H]2c1ccc(O)cc1` and answer again.
Output: Criterion not met

Input: Now consider C=CCC(OC(C)=O)[C@@H]1[C@@H](N(Cc2cc3ccccc3o2)C(=O)Cc2ccc(F)cc2)c2cc(OCCCO)ccc2N1C(=O)c1ccc2ccccc2n1 (stereo partly drawn) and answer again.
Output: Criterion not met

Input: Now consider `C=C(/C=C/CNS(=O)(=O)c1ccc(C)cc1)[C@H](O)[C@H]1CCCN1S(=O)(=O)c1ccccc1[N+](=O)[O-]` and answer again.
Output: Criterion met

Input: Now consider `[N-]=[N+]=NCc1ccccc1[C@H]1OC(c2ccc(OCCCO)cc2)=N[C@@]1(CCS(=O)(=O)c1ccccc1)C(N)=O` and answer again.
Output: Criterion met

Input: Now consider `COc1cc2c(cc1OC)CN(C(=O)[C@@H]1[C@H]3C(=O)O[C@H](c4ccccc4)[C@H](c4ccccc4)N3[C@H](c3ccccc3OCCO)[C@@]13C(=O)Nc1ccc(C#CC4(O)CCCCCC4)cc13)CC2` and answer again.
Output: Criterion not met

Input: Now consider CC1CC/C=C\[C@H]2OC34C=CCN(CCN5CCOCC5)C(=O)[C@H]3N(CCO)C(=O)[C@@H]4C2C(=O)O1 (stereo partly drawn) and answer again.
Output: Criterion met

###

Task for the reader: assign each of the following molecules its reported composite z-score.
target: Neurogenic locus notch homolog protein 2 (Homo sapiens); assay: Notch2 binders on small-molecule microarrays, primary screen, biochemical, small-molecule microarray, 635 nm fluorescence, stem cell growth factors (AID 1073); settings: Notch2 binding, higher = more signal
Lab note: record just the number, no unit beside it.

Input: Name the reported composite z-score value associated with the molecule `Cc1ccc(S[C@]2(C(=O)NC(C)C)CC(=O)N(Cc3ccccc3C(F)(F)F)[C@@H]2c2ccc(CO)cc2I)cc1`
Output: -1.67

Input: Now consider `CCOC(=O)C[C@H]1[C@H](OC(=O)c2ccc(-c3ccccc3)cc2)[C@@H](NC(=O)c2ccc3ccccc3c2)c2cc(OCCCO)ccc2N1C(=O)c1ccc2ccccc2n1` and answer again.
Output: 0.676

Input: Now consider `CCOC(=O)C[C@H]1[C@H](OC(=O)c2ccc(C(=O)c3ccccc3)cc2)[C@@H](NC(=O)c2ccc3ccccc3c2)c2cc(OCCCO)ccc2N1C(=O)c1ccccc1` and answer again.
Output: 1.48

Input: Now consider `COC(=O)[C@@]1(Cc2ccccc2)[C@H]2c3cc(C(=O)N4CCCC4)[nH]c3C[C@H]2CN1C(=O)c1ccccc1` and answer again.
Output: 1.13

Input: Now consider `CN(C)CCCNC(=O)[C@@H]1c2ccccc2C(=O)N(CC23CC4CC(CC(C4)C2)C3)[C@H]1c1ccc(CO)cc1` and answer again.
Output: 1.28

Input: Now consider `CCOC(=O)C1=CC[C@@H](c2ccccc2)N(S(=O)(=O)c2ccc(C)cc2)C1` and answer again.
Output: 0.681

Input: Now consider `O=c1cccc(-c2cccc(Cl)c2)o1` and answer again.
Output: -0.0173

All values here come from PubChem BioAssay.
